Target: T1, recombinant human C1r2s2 tetramer (human, UniProt P09871 16-688; P00736 18-705)
T1 construct: C1s and C1r co-expressed in HEK293/FreeStyle 293-F and purified from conditioned medium
T1 chain 1: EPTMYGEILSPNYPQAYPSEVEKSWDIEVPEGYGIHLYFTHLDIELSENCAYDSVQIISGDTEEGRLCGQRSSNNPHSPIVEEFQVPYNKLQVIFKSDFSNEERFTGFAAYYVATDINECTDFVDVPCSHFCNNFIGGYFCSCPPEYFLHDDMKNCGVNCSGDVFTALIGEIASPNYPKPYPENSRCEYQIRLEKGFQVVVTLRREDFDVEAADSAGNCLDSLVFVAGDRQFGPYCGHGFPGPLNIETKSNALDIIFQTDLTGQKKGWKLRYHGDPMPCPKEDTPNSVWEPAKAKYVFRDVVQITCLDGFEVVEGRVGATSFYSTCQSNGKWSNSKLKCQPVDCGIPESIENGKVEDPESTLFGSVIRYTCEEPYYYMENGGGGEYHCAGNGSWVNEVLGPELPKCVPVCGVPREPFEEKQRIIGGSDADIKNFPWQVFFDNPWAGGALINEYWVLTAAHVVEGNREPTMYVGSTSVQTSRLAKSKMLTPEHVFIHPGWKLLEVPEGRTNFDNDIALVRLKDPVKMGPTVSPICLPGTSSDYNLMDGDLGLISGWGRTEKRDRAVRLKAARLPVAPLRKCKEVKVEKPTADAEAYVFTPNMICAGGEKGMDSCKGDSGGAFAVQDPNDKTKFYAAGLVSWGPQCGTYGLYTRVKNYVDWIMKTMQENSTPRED
T1 chain 2: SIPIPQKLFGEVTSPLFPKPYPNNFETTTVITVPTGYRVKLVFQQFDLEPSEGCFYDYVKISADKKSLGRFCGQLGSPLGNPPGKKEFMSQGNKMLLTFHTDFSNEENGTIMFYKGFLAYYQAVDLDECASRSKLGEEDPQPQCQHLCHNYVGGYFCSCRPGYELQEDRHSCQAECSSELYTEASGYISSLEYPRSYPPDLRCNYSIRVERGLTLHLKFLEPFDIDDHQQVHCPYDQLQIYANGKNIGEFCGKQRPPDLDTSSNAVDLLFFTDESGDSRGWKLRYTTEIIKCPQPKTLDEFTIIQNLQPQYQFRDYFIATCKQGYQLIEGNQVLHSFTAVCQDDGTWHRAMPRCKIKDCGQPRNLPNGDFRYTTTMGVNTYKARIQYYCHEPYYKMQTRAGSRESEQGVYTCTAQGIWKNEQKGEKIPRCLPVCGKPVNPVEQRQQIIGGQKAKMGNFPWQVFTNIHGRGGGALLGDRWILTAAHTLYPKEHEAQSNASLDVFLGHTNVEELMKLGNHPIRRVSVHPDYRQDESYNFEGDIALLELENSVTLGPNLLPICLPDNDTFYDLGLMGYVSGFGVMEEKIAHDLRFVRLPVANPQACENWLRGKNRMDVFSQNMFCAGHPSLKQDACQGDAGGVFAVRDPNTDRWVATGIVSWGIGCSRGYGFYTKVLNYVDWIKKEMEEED
Assay Name: SPR (BIACORE T200), 37 C, Ab captured via anti-human Ig kappa, human C1r2s2 as analyte, pH 7.4
Method: KD (dissociation constant) value of each samples at pH 7.4 and pH 5.8 are determined at 37 degrees C. using BIACORE® T200 instrument (GE Healthcare). Purified Mouse Anti-Human Ig kappa Light Chain (GE Healthcare) can be immobilized onto all flow cells of a CMS sensor chip using an amine coupling kit (GE Healthcare). 20 mM ACES, 150 mM NaCl, 1.2 mM CaCl2, 1 mg/mL BSA (IgG-free), 1 mg/mL CMD, 0.05% Tween® 20, 0.005% NaN3, pH 7.4 or pH 5.8 buffer were used as running buffer. […]
Measured Endpoint: Kd
Note to self: number, then unit, no commentary.

For orientation, consider the following solved cases.
INSERT INTO assay_data (binder, measured_endpoint, meas_value) VALUES
  ('COS0637pHv8-TT91R (antibody, V domains shown) VH: QVQLVESGGGVVQPGRSLRLSCAASGFTFSAYAMNWIRQPPGKGLEWIGLIYGSGHEFYASWAEERVTISVDTSKNQFSLKLSSVTAADTAVYYCARGRSKNYNSDFHLWGQGTLVTVSS VL: DIQMTQSPSSLSASVGDRVTITCQANQILHDKKNLAWYQQKPGQPPKLLIYGASTLESGVPSRFSGSGSGTDFTLTISSLQPEDFATYYCHGEFSYSSADLNTFGQGTKVEIKR', 'Kd', '7.46 nM'),
  ('COS0637pHv6-TT91R (antibody, V domains shown) VH: QVQLVESGGGVVQPGRSLRLSCAASGFSFSAYAMNWIRQPPGKGLEWIGLIYGSGHEFYASWAEERVTISVDTSKNQFSLKLSSVTAADTAVYYCARGRSKNYVSGFHLWGQGTLVTVSS VL: DIQMTQSPSSLSASVGDRVTITCQAQQILHDKRNLAWYQQKPGQPPKLLIYQASQLESGVPSRFSGSGSGTDFTLTISSLQPEDFATYYCHGEFSYESADLNTFGQGTKVEIKR', 'Kd', '8.39 nM');

Now turn to the next binder.
IN: Recorded Kd for COS0637pHv1-TT91R (antibody, V domains shown) VH: QVQLVESGGGVVQPGRSLRLSCAASGFTFSAYAMNWIRQPPGKGLEWIGLIYGSKSTFYASWAEGRVTISVDTSKNQFSLKLSSVTAADTAVYYCARGRSKNYNSDFHLWGQGTLVTVSS VL: DIQMTQSPSSLSASVGDRVTITCQASQSLHDKKNLAWYQQKPGQPPKLLIYGASTLESGVPSRFSGSGSGTDFTLTISSLQPEDFATYYCQGEFSCSSADCNTFGQGTKVEIKR , please?
OUT: 17.2 nM

From: patent US20240092889A1
